Would you kindly list Activity for each of these molecules?
assay.details: Stability of compound at pH 4.0 assessed as change in purity at 1 mg/ml incubated for 12 hrs by HPLC analysis
Format: physicochemical
test.settings: buffer, pH 4, 12 h
Give the quantity in %, number only.

Q: Can you share its Activity? I mean this molecule: O=c1ccn([C@@H]2O[C@](F)(CO)[C@@H](O)[C@H]2O)c(=O)[nH]1
Result: -24.9

Q: Record request: Activity value, item CC(=O)O[C@H]1[C@H](n2ccc(=O)n(COC(=O)c3cccnc3)c2=O)O[C@](F)(COC(=O)C(C)C)[C@H]1OC(C)=O
Result: -0.1

Q: Suppose we examine the molecule CC(C)C(=O)OCn1c(=O)ccn([C@@H]2O[C@](F)(COC(=O)C(C)C)[C@@H](O)[C@H]2O)c1=O ; what Activity value has been reported?
Result: -1.8

Q: // query Activity value for entry CC(C)C(=O)OC[C@@]1(F)O[C@@H](n2ccc(=O)n(COC(=O)c3cccnc3)c2=O)[C@H](OC(=O)C(C)C)[C@@H]1OC(=O)C(C)C
Result: 0
